interaction score overview
- Study Target: T1, P7A-bA
- T1 chain: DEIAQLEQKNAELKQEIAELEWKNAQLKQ
- Assay Notes: two-hybrid library CCNG1;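 note: natural log of median RNA to DNA barcode read ratio; higher means stronger binding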

Examples with answers:
DEIAQLKQEIAELEQKNAELKWKNAQLEQ [4H575-bA]    -1.17
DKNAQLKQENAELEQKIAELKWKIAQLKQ [P10A-bA]    1.04
DEIAQLEQEIAELEQKNAELKWKNAQLKQ [P3A-bA]    -1.05

Next:
query: Given the binder DKNAQLKQKIAELKQKIAELKWENAQLEQ [P12A-bA] , what is its reported interaction score?
result: -1.88

The values you see were collected from paper PMC10397247.
